Experiment: Solubility in growth medium
Type: physicochemical
Conditions: aqueous buffer, read-out: concentrations of naringenin soluble in growth medium
outcome-measure: solubility

Prompt line: Return value of solubility for input O=C1C[C@@H](c2ccc(O)cc2)Oc2cc(O)cc(O)c21 [naringenin] , no commentary.
Response line: < 200 µM

Numbers sourced from patent US20190185865A1.
